Taken from a melting point compilation (Tetko et al.; mined from patent text by program, amines drawn as free bases though some values may be those of a salt).

COMPOUND	melting point
COC(=O)C1=C(C)NC2=C(C(=O)NCC2)C1c1ccc(F)c(Br)c1 (stereo not given)	150 to 152 °C
CCOC(=O)C(Cc1ccc(OCCc2nc(-c3ccccc3)oc2C)cc1)C(=O)OCC	69.8 to 70.5 °C
COC1(c2ccc(Sc3ccc(C(=O)c4ccc(C(F)(F)F)cc4)cc3)s2)CCOCC1	86 to 87 °C
OCC1OC(n2cnc3c(NC4CCCCC4)ncnc32)C(O)C1O (stereo not given)	185 to 187 °C
Nc1nc2c(s1)CCN(CC=Cc1ccc3ccccc3c1)CC2	164 to 165 °C
COc1ccccc1NS(=O)(=O)c1ccc(F)cc1	101 to 102 °C
Cc1ccc(C2=CCN(CCCn3c(=O)[nH]c4cccc(C)c4c3=O)CC2)cc1	165 to 170 °C
CCCN(CCN)CCNC(=O)c1nc(Cl)c(N)nc1N	91 to 94 °C
CC(C)C(=O)NCCC1C=CC=CC1=O (stereo not given)	88 to 93 °C
CCOC(=O)c1c(C(C)C)csc1N/C=C(\C#N)C(=O)OC(C)(C)C	93 to 94 °C
